Listed molecules paired with reported growth
Tested on: HT29 colon
Assay: NCI-60 one-dose screen, 48 h (100 = growth as untreated, 0 = no growth, -100 = all killed)
Conditions: 10 µM unless noted
This is part of a sample that, as a whole, favours compounds with a hit. Of some 83,000 tested, about 20% had one in any assay.
Enter your answer as a number in %; do not include the unit.

Completed entries (count: 4):
COc1cc(NS(=O)(=O)c2ccc(-c3cnc(C4CC4)o3)cc2)ccc1F : 2.64
N#Cc1c(-c2ccccc2)[nH]c2ncc(-c3ccccc3)n2c1=O : 106
CC(=O)O[C@@H]1C[C@]2(C(C)C)O[C@@]1(C)[C@@H]1CCC(C)=C1[C@@H]2OC(=O)/C=C/c1ccccc1 : 74.8
CC(C)COc1nc2c(c(=O)n(C)c(=O)n2C)n1C : 99.8

// switching to the query molecule
Consider the molecule `Nc1ncc(-c2ccc3ncnc(Nc4cccc(Cl)c4)c3c2)cn1` and give its measured growth.
40

====

System: SNB-19 CNS
Assay: NCI-60 one-dose screen, 48 h (100 = growth as untreated, 0 = no growth, -100 = all killed)
Details: 10 µM unless noted
The panel holds about 83,000 compounds, 20% with a hit somewhere; the sample as a whole holds those more often.
MEASURED_PARAMETER: growth (%)
Enter your answer as a number in %; do not include the unit.

Completed entries (count: 4):
NS(=O)(=O)c1ccc(N=Nc2c(O)n(Cc3ccccc3)c3ccc(Cl)cc23)cc1 : 40.8
COC12C=C/C(=C(/C(=O)OCc3ccncn3)C(=O)CCCCCCCCC3(OC)C=C/C(=C(/C(=O)OCc4ccncn4)C(=O)CCCCCCCC1)O3)O2 : 7.75
Cc1ccc(C[P+](c2ccccc2)(c2ccccc2)c2ccccc2)cc1 : 19.9
COc1ccc(-c2ccc(-c3ccc(C(=N)N)cc3)s2)cc1Cl : 24

Consider the compound `COC(=O)c1cc(N=C2NC(=O)/C(=C/C=C/c3ccccc3)S2)ccc1O` and give its measured growth.
30.4

Consider the compound `O=C(NNC(=O)c1ccc(NC(=O)c2ccccn2)cc1)Nc1ccc([N+](=O)[O-])cc1` and give its measured growth.
83.6

Consider the compound `CC(=O)Oc1ccc(C)cc1C` and give its measured growth.
103

Consider the compound N#CC1=C(c2ccccc2)Nc2c(c(-c3ccc(Cl)cc3)nn2-c2ccccc2)C12C(=O)Nc1ccc(Cl)cc12 (centres undefined) and give its measured growth.
70.5

Consider the compound `CSc1nc2ccccc2cc1/C=[N+](\[O-])c1ccccc1` and give its measured growth.
72.9

====

System: CAKI-1 renal
Test: NCI-60 one-dose screen, 48 h (100 = growth as untreated, 0 = no growth, -100 = all killed)
Settings: 10 µM unless noted
Compounds without any hit were thinned out: in the full panel of roughly 83,000, 20% have a hit.
Listed molecules paired with reported growth
Enter your answer as a number in %; do not include the unit.

Completed entries (count: 3):
CCOC(=O)c1c(NC(=O)c2cccc(C(F)(F)F)c2)sc2c(CN(C)C)c(O)ccc12 : 71.1
C[PH+](c1nc2ccccc2nc1[PH+](C)C(C)(C)C)C(C)(C)C.C[PH+](c1nc2ccccc2nc1[PH+](C)C(C)(C)C)C(C)(C)C.[Au+].[Cl-] (centres undefined) : -93.4
N#Cc1nc(-c2ccc(F)cc2)oc1S(=O)(=O)N1CCOCC1 : 78.5

// switching to the query molecule
Consider the molecule `O=C(COc1ccc(-c2nc3cc(Cl)c(Cl)cc3[nH]2)cc1)N=Nc1c(O)[nH]c2ccc(Cl)cc12` and give its measured growth.
76.3

====

Test system: SR leukemia
Test: NCI-60 one-dose screen, 48 h
Details: 10 µM unless noted
The panel holds about 83,000 compounds, 20% with a hit somewhere; the sample as a whole holds those more often. Active and inactive are the calls of the source. How the source made its calls: active means growth percent below 10; inactive means the rest.
Output constraint: value belongs to active, inactive

Worked cases, answers included:
Oc1ccc(Cl)cc1/C=N\NC(=S)N/N=C/c1cc(Cl)ccc1O : inactive
CCN(CC)CCCCCNc1cc(OC(=O)c2ccc(Cl)cc2)cc2cccnc12 : inactive
Nc1c(C(=O)Nc2ccccc2C(F)(F)F)sc2nc3c(cc12)CCC3 : inactive

Status in this test for `O=c1[nH]c(-c2ccccc2)nc2sc3cc(O)ccc3c12` ?
inactive

Status in this test for `COc1ccc(/C=C(\C#N)n2nnc3ccc(Cl)cc32)cc1` ?
inactive

Status in this test for `O=C1c2c(c3c4ccccc4[nH]c3c3ccc4ccccc4c23)C(=O)N1CCN1CCNCC1` ?
active

Status in this test for `COc1c(B(O)O)cccc1-c1cc(C)c2c(ccc3[nH]ncc32)n1` ?
inactive

Status in this test for `Cc1ccc(CNc2ccc3nc(CCC4CCCCC4)[nH]c3c2)cc1` ?
inactive

Status in this test for COC(=O)C1Cc2ccccc2CN1C(=O)c1ccc2c(c1)Cc1ccccc1-2 (stereo not drawn) ?
inactive

====

Listed molecules paired with reported growth
Tested on: HT29 colon
Assay: NCI-60 one-dose screen, 48 h (100 = growth as untreated, 0 = no growth, -100 = all killed)
Details: 10 µM unless noted
Compounds without any hit were thinned out: in the full panel of roughly 83,000, 20% have a hit.
Enter your answer as a number in %; do not include the unit.

Completed entries (count: 4):
COc1ccc(-c2noc(C(=O)O)c2-c2cc(OC)c(OC)c(OC)c2)cc1 : 4.82
Cc1ccc(C(=O)c2ccc(CC(=O)N/N=C/c3ccccc3O)n2C)cc1 : 101
N=C(N)c1ccc(-c2ccc(-c3ccc(Cl)c(Cl)c3)s2)nc1 : 5.19
O=C(O)c1cn(C2CC2)c2cc(N3CCN(Cc4ccc5ccccc5c4O)CC3)c(F)cc2c1=O : -32.4

// switching to the query molecule
Consider the molecule `CC(=O)c1c(C)nc(SCC(=O)Nc2cccc(O)c2)n1-c1ccc(Cl)cc1` and give its measured growth.
102

====

Tested on: PC-3 prostate
Test: NCI-60 one-dose screen, 48 h (100 = growth as untreated, 0 = no growth, -100 = all killed)
Conditions: 10 µM unless noted
This is part of a sample that, as a whole, favours compounds with a hit. Of some 83,000 tested, about 20% had one in any assay. Calls of active or inactive are those of the source. Rule for the calls: active = growth percent below 10; inactive = the rest.
Listed compounds paired with reported growth

CC(C)c1ccc(C(=O)Nc2nc3ccc(O)c(CN(C)C)c3s2)cc1 : 83% (inactive)
CC1(C)COB(OCC(C)(C)COB2OCC(C)(C)CO2)OC1 : 94.2% (inactive)
NC(=O)c1cccc(-n2ccc3cc(NC(=O)c4ccc(N5CCOCC5)c(C(F)(F)F)c4)ccc32)n1 : 34.5% (inactive)
N#Cc1ccc(O)c(C2=NCC(c3ccccc3)O2)c1 (stereo unspecified) : 31.6% (inactive)
Oc1c(Br)cc(Br)c2ccc(Cn3cc(-c4ccc(C(F)(F)F)cc4)nn3)nc12 : 77.6% (inactive)
Nc1c(C(=O)Nc2ccccc2F)sc2nc3c(cc12)CCCC3 : 27.7% (inactive)

Consider the compound `COc1ccccc1NC(=O)N=Nc1c(O)[nH]c2ccccc12` and give its measured growth.
89.7% (inactive)

Consider the compound COC(=O)C1Cc2ccccc2CN1C(=O)c1ccc2c(c1)Cc1ccccc1-2 (stereo unspecified) and give its measured growth.
21.2% [50 µM] (inactive)

Consider the compound CN(C)CCNC(=O)c1ccc(-c2nc3ccc4[nH]ncc4c3c3c2C2CCC3C2)cc1 (stereo unspecified) and give its measured growth.
19.9% (inactive)

Consider the compound `CCOC(=O)c1nn(-c2ccc(S(N)(=O)=O)cc2)c2nc(C)cc(=O)n12` and give its measured growth.
101% (inactive)

Consider the compound `COC(=O)/C=C1/SC(=Nc2ccc(C(F)(F)F)cc2)N(CCc2c[nH]c3ccc(O)cc23)C1=O` and give its measured growth.
-33.8% (active)

Consider the compound `Nc1nc2ccc(-c3nc4ccc5[nH]ncc5c4c4c3CCCC4)cc2s1` and give its measured growth.
100% (inactive)

====

Tested on: T-47D breast
Assay: NCI-60 one-dose screen, 48 h
Settings: 10 µM unless noted
Method: Growth inhibition of the T-47D human tumor cell line is measured as a screen for anti-cancer activity. Cells are grown in 96 well plates and exposed to the test compound for 48 hours. Compounds are tested at a single concentration, which is 10^-5 M for most compounds. The reported endpoint is percent growth (GI% or GIPRCNT), where numbers from 0 - 100% represent growth inhibition, and numbers from -100% - 0 represent cell death. For example, a value of 40 represents 60% growth inhibition. […]
This is part of a sample that, as a whole, favours compounds with a hit. Of some 83,000 tested, about 20% had one in any assay. Activity calls are given as the source filed them. Rule for the calls: active = growth percent below 10; inactive = the rest.
Output constraint: value belongs to YES for active, NO for inactive

CCCCNC(=O)CC1=C(C)/C(=C/c2[nH]c(-c3ccc[nH]3)cc2OC)N=C1C : NO
Fc1ccc(CNc2c3ccccc3nc3ccccc23)c(F)c1 : NO
CCOc1ccc(NC(=O)CSc2oc(-c3ccccc3)nc2S(=O)(=O)c2ccc(C)cc2)cc1 : NO
O=S(=O)(NCCCNc1nccc(-c2c(-c3ccc(F)c(O)c3)nc3occn23)n1)c1ccc(Cl)cc1 : NO
O=S(=O)(NCCCNc1nccc(-c2c(-c3ccc(F)c(O)c3)nc3sccn23)n1)c1ccccc1 : NO

Status in this test for `COc1ccc(/C=C(\C#N)n2nnc3cc(F)c(F)cc32)cc1` ?
NO

Status in this test for `CN(C)Cc1ccc(O)c(C(=O)O)c1` ?
NO

Status in this test for `COc1ccc(-c2cc(-c3cccnc3)nc3sc4c(=O)[nH]c(-c5ccc(Cl)cc5)nc4c23)cc1OC` ?
NO

Status in this test for `CC/C=C\C[C@H](O)C/C=C1/C(=O)C=C[C@@H]1C/C=C\CCCC(=O)N(C)C` ?
NO

Status in this test for `COc1ccc(F)cc1/C=C/C(=O)/C=C(/C=C/c1cc(F)ccc1OC)OB(F)F` ?
NO

Each recorded value in this set is attributed to PubChem BioAssay (NCI).
